Target Or Test System: Leucine aminopeptidase (Plasmodium falciparum (isolate 3D7))
Procedure Summary: P. falciparum M17LAP inhibitors, primary screen, biochemical, fluorogenic H-Leu-NHMec substrate, 1536-well (AID 1619);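 also: plate controls were full reaction with DMSO carrier for no effect and no enzyme background for full effect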
Conditions Used: recombinant M17LAP, H-Leu-NHMec fluorogenic kinetic assay; at 30 µM; hits give high values
In all, about 220,000 compounds went through this assay and about 830 (0.38%) were called active. These entries were drawn from the full list. Measured potencies and affinities stand elsewhere.
Measured Endpoint: inhibition

What is its inhibition for Leucine aminopeptidase (Plasmodium falciparum (isolate 3D7))? Entry: Cc1ccsc1C(=O)NNC(=O)C1CC=CCC1C(=O)O (stereo unspecified)
28% (inactive)

Another molecule: COC(=O)c1c(-c2cccc(C)c2)csc1NC(=O)C1CCCO1 (stereo unspecified)
-0.44% (inactive)

And then CCOC(=O)c1c(-c2ccc(OC)c(OC)c2)csc1NC(=O)C1CCCO1 (stereo unspecified) , what is it?
-3.98% (inactive)

And what about the molecule CCOC(=O)c1c(-c2ccccc2)csc1NC(=O)C1CCCO1 (stereo unspecified) ?
17.1% (inactive)

// same read-out, input: "Cc1cc(C)n(-c2ccc(C(=O)Nc3nnc(C4CC4)s3)cc2)n1"
4.37% (inactive)

Same thing, different molecule: CC(C)OC(=O)c1c(-c2ccc(C(C)C)cc2)csc1NC(=O)C1CCCO1 (stereo unspecified)
16.2% (inactive)

---

Target Or Test System: Leucine aminopeptidase (Plasmodium falciparum (isolate 3D7))
Procedure Summary: P. falciparum M17LAP inhibitors, primary screen, biochemical, fluorogenic H-Leu-NHMec substrate, 1536-well (AID 1619);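 also: plate controls were full reaction with DMSO carrier for no effect and no enzyme background for full effect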
Conditions Used: recombinant M17LAP, H-Leu-NHMec fluorogenic kinetic assay; at 30 µM; hits give high values
The whole screen tested about 220,000 compounds, of which about 830 (0.38%) were called active. Only a sample is shown. Entries with a potency or affinity are not part of this list.
Would you kindly list inhibition for each of these compounds?
Express the result in % but write the number alone.

Look at this compound and give its reported inhibition. "Cc1cc(/C=C(/C#N)c2nc3ccccc3[nH]2)c(C)n1-c1ccccc1C(=O)O"
23

And what about the compound COc1ccc(C2=CC3=C(Br)C(=O)C(C)(OC(=O)C4CCCC4)C(=O)C3=CO2)cc1 (stereo not given) ?
22.1

Now this one: "O=C(COC(=O)Cc1ccc(Br)cc1)NCC1CCCCC1"
1.79

Another compound to look at: CCOC(=O)C1=NNC2C(=O)N(Cc3ccccc3)C(=O)C12 (stereo not given)
5.31

Another compound: "CCCCN1C(=O)/C(=C/C=C2\SCCN2C)SC1=S"
-4.21

Also check "O=C(NCCSCc1ccccc1)c1cc(S(=O)(=O)N2CCOCC2)ccc1F"
6.12

Please answer likewise for "CC(C)=N/N=C(/c1ccc([N+](=O)[O-])cc1)C12CN3CN(CN(C3)C1)C2"
5.26

Similarly, "O=c1[nH]nc(N/N=C/c2ccccc2OC(F)F)c(=O)[nH]1" ?
3.73

What do you get for Cc1cccc(N2CCN(S(=O)(=O)c3ccc4c(c3)CCN4C(=O)CCC(=O)O)CC2C)c1 (stereo not given) ?
-2.93

Could you do the same for COc1ccc(/C=N/N=C2\SC(CC(=O)O)C(=O)N2c2ccccc2)cc1 (stereo not given) , please?
33.9

Again, but for "COc1ccc(-c2[nH]ncc2/C=C(/C#N)C(=O)NC2CCCCCC2)cc1"
-2.26

Try this compound too: "COc1ccc(-c2nc(-c3cccc(C(F)(F)F)c3)no2)cc1OC"
-5.65

Now consider "CCC(=O)Nc1ccc(Br)c(Cl)c1" and answer again.
-2.61

// same read-out, input: "COCc1cc(=O)n2[nH]c(-c3cccc(Br)c3)cc2n1"
6.67

Subsequent entry: "CCC(=O)NCCc1c[nH]c2ccccc12"
-4.01

Further, for "O=C(CSc1nccc(=O)[nH]1)Nc1ccc(F)c([N+](=O)[O-])c1" ?
31.4

Follow-up item: "COC(=O)/C(=N/Nc1cccc(C)c1)N1CCCc2ccccc21"
1.03

# iterate: "Cc1ccc(NC(=O)CN2CCCCCC2)cc1Br"
9.91

Same question, "COc1cccc(CNC(=O)CN2C(=O)CSc3ccc(S(=O)(=O)N4CCCC4)cc32)c1" this time
1.2

Query Cc1ccc([N+](=O)[O-])cc1S(=O)(=O)N1CCCCC1C(=O)O (stereo not given) next
11.7

Okay, and "Cc1nnc(SCC(=O)NC(=O)NCc2ccco2)s1" ?
-1.14

And then "CCCC(=O)Nc1ccc2c(c1)c1ccccc1n2CC" , what is it?
-0.99

Another compound: "COC(=O)C(C)(C)ONC(=O)Nc1ccccc1Cl"
-4.74

And the next one, "OCCN1CCN(c2nc(-c3ccccc3)nc3c2oc2ccccc23)CC1" ?
7.26

Quick one: CCC(C)C(NC(=O)c1ccccc1NC(=O)c1ccco1)C(=O)NNC(=O)c1ccncc1 (stereo not given)
3.96

For "Cc1cccc(NC(=O)CSCc2nc3c(nnn3Cc3ccc(F)cc3)c(=O)[nH]2)c1C" then?
22.9

Please answer likewise for CCCC(C)c1nnc(NC(=O)C(=O)OCC)s1 (stereo not given)
2.47

Queued: "O=C(COn1nnc2ccc(C(F)(F)F)cc21)Nc1c(Cl)cccc1Cl"
-14.4

What do you get for CN1C(=O)CS(=O)c2ccc(C(=O)NCCC3=CCCCC3)cc21 (stereo not given) ?
-0.02

Proceed to "O=C1CCC(=O)N1CN(C(=O)c1ccco1)c1ccccc1"
-2.98

Now this one: "Cc1ccccc1Nc1nnc(SCC(=O)NCc2ccco2)s1"
45.1

Entry to check: "Cc1cccn2cc(CCNS(=O)(=O)c3cccc([N+](=O)[O-])c3)nc12"
-1.3

Try this compound too: "O=C(O)c1ccc(/C=N/NC(=O)c2cc(-c3cccs3)nc3ccccc23)cc1"
-43.1

Now the compound "Fc1ccc(OCc2nc(-c3cccs3)no2)cc1"
-5.15

Now the compound O=C(CC(Nc1ccc(F)cc1)c1ccccc1)c1ccccc1 (stereo not given)
-9.06

Lookup "CCCCC(=O)NC(=S)Nc1cccc(NC(=O)c2ccccc2)c1"
2.99

Continue with "COc1ccc(-c2[nH]ncc2/C=C(/C#N)C(=O)NC2CCCCC2)cc1"
0.03

Record: "CC(C)C(=O)NCCc1c[nH]c2ccccc12"
3.48

Follow-up item: "COc1ccc(S(=O)(=O)Nc2ccc3c(c2)OCO3)cc1"
-4.98

Proceed to COc1ccc(/C=N\N=C2/SC(CC(=O)O)C(=O)N2c2ccc(O)cc2)cc1 (stereo not given)
45.6

Check "O=C(NCc1ccco1)c1ccc(F)c(S(=O)(=O)N2CCCCC2)c1" too.
8.34

Same for "O=C(c1cc(-c2ccc(F)cc2)on1)N1CCCc2ccccc21"
1.4

Check "CCOC(=O)c1ccc(S(=O)(=O)NNC(=O)COc2ccccc2C)cc1" too.
-5.37

Input CC(Sc1nc(-c2ccccc2)cc(=O)[nH]1)C(=O)O (stereo not given)
22.4

Consider next the compound "CCOC(=O)N1CCN(C(=O)c2ccc3c(=O)n(Cc4ccc(Cl)cc4)c(=S)[nH]c3c2)CC1" in the same way.
-6.9

---

Target Or Test System: Leucine aminopeptidase (Plasmodium falciparum (isolate 3D7))
Procedure Summary: P. falciparum M17LAP inhibitors, primary screen, biochemical, fluorogenic H-Leu-NHMec substrate, 1536-well (AID 1619);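 also: plate controls were full reaction with DMSO carrier for no effect and no enzyme background for full effect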
Conditions Used: recombinant M17LAP, H-Leu-NHMec fluorogenic kinetic assay; at 30 µM; hits give high values
About 830 (0.38%) of roughly 220,000 compounds were called active. Only a sample is shown. Entries with a potency or affinity are not part of this list. Residues, ends and D or L forms follow the SMILES beside them. *: point of attachment. Bz = O=C(c1ccccc1)*
Measured Endpoint: inhibition

Item "Cc1cc(S(=O)(=O)Nc2cccc(Cl)c2)c(C)s1" has what recorded inhibition?
4.03% (inactive)

Then what about the compound "Cc1ccc(-n2c(C)cc(/C=N/Nc3ccc([N+](=O)[O-])cn3)c2C)cc1" ?
-7.78% (inactive)

Repeat for the following compound: "Cc1ccc2cc(C)c(SCC(=O)Nc3ccc(S(=O)(=O)N4CCCC4)cc3)nc2c1"
-14.9% (inactive)

Another compound: CCOC(=O)c1cc(-c2ccccc2)sc1NC(=O)C(C)N1C(=O)c2ccccc2C1=O (configuration not stated)
-1.18% (inactive)

Input "CCc1cc2ccc(C)cc2nc1SCC(=O)Nc1c[nH]c(=O)[nH]c1=O"
21.2% (inactive)

Try this compound too: "CCOC(=O)c1ccc(NC(=O)Cn2nnc(-c3ccccc3F)n2)cc1"
-13.6% (inactive)

Likewise for CCC(C)[C@H](NC(=O)Nc1ccc(S(N)(=O)=O)cc1)C(=O)O (some centres not stated) ?
4.8% (inactive)

Next entry: "COc1ccc2cc(C)c(SCC(=O)Nc3cc(C)on3)nc2c1"
-7.8% (inactive)

Also check "CC(=O)N1CCC(N(C(=O)Nc2ccc(F)cc2)C2CCCC2)CC1"
11% (inactive)

Continue with "COc1cc(NC(=O)CSc2nnc3c(C)cc4c(C)ccc(C)c4n23)c(C(=O)O)cc1OC"
3.38% (inactive)

Same question, "Cc1cc(C)cc(OCC(=O)OCC(=O)c2ccc3c(c2)NC(=O)CO3)c1" this time
-0.31% (inactive)

Moving on to the next compound: "CC(C)C[C@H](NC(=O)Nc1ccc(Oc2ccccc2)cc1)C(=O)O"
38.9% (inactive)

// same read-out, input: "COc1ccc(/C=C/C2=NN(C)C(=O)CC2)cc1"
48.2% (inactive)

One more compound: O=C(NC(Cc1ccccc1)C(=O)NC(Cc1ccccc1)C(=O)O)c1ccccc1 (stereo not drawn) (Bz-Phe-Phe-OH; configuration not given here)
45.6% (inactive)

Could you do the same for "O=C(Nc1ccc(C(=O)O)cc1)/C(=C\c1ccc2c(c1)OCO2)NC(=O)c1ccc(Br)o1" , please?
12% (inactive)

Then this compound: "Cc1ccc(C(=O)c2cn[nH]c2-c2ccccc2O)cc1"
44.9% (inactive)

Next entry: "CCOC(=O)c1cc(=O)n2nc(-c3ccc(C)cc3)nc2s1"
10.8% (inactive)

Lookup "CCc1cc2ccc(C)cc2nc1SCC(=O)Nc1cc(C)on1"
-2.5% (inactive)

// query: CC(NC(=O)c1ccc(Br)cc1)c1ccccc1 (configuration not stated)
12.4% (inactive)

Now this one: "CCc1cc2cc3c(cc2nc1SCC(=O)Nc1nccs1)OCO3"
-1.06% (inactive)

Now consider "CCc1ccc2c(c1)cc(C)c1nnc(SCC(=O)Nc3cc(OC)c(OC)cc3C(=O)O)n12" .
7.71% (inactive)

Please give the result for "COc1cccc(NS(=O)(=O)c2cc(C)sc2C)c1" too.
11.3% (inactive)
